// provenance: the SangsterLogP compilation

- protocol: from Jayashree, Bs.; Sahu, A.; MM, S.; Venugopala, K. (2006). Synthesis, characterization and determination of partition coefficient of some triazolo thiadiazinyl chlorocoumarin derivatives for their …
- assay-context: pH 7.4
quantity-kind: logD

>>> df
                                 cpd_smiles  recorded_measurement
0  O=c1oc2ccc(Cl)cc2cc1C1=Nn2c(COc3ccc(Cl)cc3)nnc2SC1                  1.33
1  O=c1oc2ccc(Cl)cc2cc1C1=Nn2c(nnc2-c2ccc(Cl)cc2)SC1                  1.49
2  O=c1oc2ccc(Cl)cc2cc1C1=Nn2c(nnc2-c2ccccc2Cl)SC1                  1.53
3  O=c1oc2ccc(Cl)cc2cc1C1=Nn2c(nnc2-c2ccc(Br)cc2)SC1                  1.51
4  O=c1oc2ccc(Cl)cc2cc1C1=Nn2c(nnc2-c2ccncc2)SC1                  1.18

====

- protocol: method code SF-AS, from DOI: 10.1021/jm00170a024, PMID: 2374146
quantity-kind: logP

>>> print(df.to_string())
                               cpd_smiles  quantity_kind  recorded_measurement
0  CCOP(=O)(Cc1ccc(-c2nc3ccccc3s2)cc1)OCC           logP                   3.5

====

Collected logP values appear next to each entry.
- protocol: method code SF, from DOI: 10.1016/s0378-5173(98)00231-2
quantity-kind: logP

>>> df
        cpd_smiles  quantity_kind  recorded_measurement
0   OCCCCCc1ccccc1           logP                  2.89
1  OCCCCCCc1ccccc1           logP                  3.29
2     OCCCc1ccccc1           logP                  1.83

====

Below, each of the molecules is paired with its reported logP value.
quantity-kind: logP

>>> print(df.to_string())
                                 cpd_smiles  recorded_measurement
0                    c1ccc2c(c1)ccc1ccccc12                  4.69
1  Clc1cc(Cl)c(-c2cc(Cl)c(Cl)c(Cl)c2Cl)cc1Cl                  7.15

====

- protocol: method code SF, from DOI: 10.1016/0021-9673(91)85016-9
- assay-context: pH 7.0
quantity-kind: logD

                                   molecule  recorded_measurement
0  O=c1ccn2c(n1)OC1C(O)C(CO)OC12 (stereo unspecified)                 -2.85

====

quantity-kind: logP

            cpd_smiles  recorded_measurement
0  CCCn1cnc2c(N)ncnc21                  0.74

====

- protocol: method code SF-AS, from DOI: 10.1002/qsar.19870060104
quantity-kind: logP

            cpd_smiles  quantity_kind  recorded_measurement
0  O=c1ccoc2cc(O)ccc12           logP                  1.44

====

Below is a list of entries, each paired with its recorded logP value.
- protocol: method code SF, from DOI: 10.1071/sr9810061
quantity-kind: logP

>>> print(df.to_string())
                                   compound  recorded_measurement
0          CCOP(=O)(OCC)SCS(=O)(=O)C(C)(C)C                  2.76
1  CCOP(=O)(OCC)SCS(=O)C(C)(C)C (configuration not stated)                  2.66
